# Tested System: Recombinant GMPPNP-loaded KRAS G12C (KRAS-G12C(ON), active form) (Homo sapiens, UniProt P01116, G12C)
# Sequence (P01116 1-188 isoform P01116-2 G12C): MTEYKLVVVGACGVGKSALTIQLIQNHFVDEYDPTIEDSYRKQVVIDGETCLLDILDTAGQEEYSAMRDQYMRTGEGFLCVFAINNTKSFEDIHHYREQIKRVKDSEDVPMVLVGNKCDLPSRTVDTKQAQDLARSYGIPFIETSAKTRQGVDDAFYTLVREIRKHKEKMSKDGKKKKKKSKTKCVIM
# Assay Explanation: KRAS G12C RAF Disruption Assay (HTRF)
# Type: biochemical
# Cond: GMPPNP-loaded KRAS G12C 5 nM, GST-RAF1 RBD 9 nM, values given in μM, read-out: KRASG12C RAF Disruption Assay (IC50)
# maps each entry to its IC50
Property Measured: IC50 (µM)

{"Molecule": "Cc1cc(N)nc(-c2c(Cl)cc3c(N4[C@@H]5CC[C@H]4[C@H]4CN(C(=O)/C(F)=C/c6nccs6)C[C@H]45)nc(OC[C@]45CCCN4C[C@H](F)C5)nc3c2F)c1C(F)(F)F (atropisomer, axis not shown; (aR))", "Result Value": 5.8}
{"Molecule": "Cc1cc(N)nc(-c2c(Cl)cc3c(N4CC5CC(C4)N5C(=O)/C(F)=C/c4nccs4)nc(OC[C@]45CCCN4C[C@H](F)C5)nc3c2F)c1C(F)(F)F", "Result Value": 9.2}
{"Molecule": "C#Cc1c(F)ccc2cc(O)cc(-c3ccc4c(N5C[C@H]6CC[C@@H](C5)N6C(=O)/C(F)=C/c5ncccn5)nc(OC[C@@H]5CCCN5C)nc4c3F)c12", "Result Value": 21.3}
{"Molecule": "Cc1cc(N)nc(-c2c(Cl)cc3c(N4C[C@H]5CC[C@@H]4[C@@H]5NC(=O)/C(F)=C/c4nccs4)nc(OC[C@@H]4CCCN4C)nc3c2F)c1C(F)(F)F (atropisomer, axis not shown; (M))", "Result Value": 2.26}

====

# Tested System: Recombinant GMPPNP-loaded KRAS G12C (KRAS-G12C(ON), active form) (Homo sapiens, UniProt P01116, G12C)
# Assay Explanation: KRAS G12C RAF Disruption Assay (HTRF)
# Assay type: biochemical
# Cond: GMPPNP-loaded KRAS G12C 5 nM, GST-RAF1 RBD 9 nM, values in nM, read-out: KRASG12C RAF Disruption Assay (IC50)
# maps each entry to its log10 of IC50
Property Measured: log10 of IC50 (log10 of the value in nM)

{"Compound Structure String": "C#Cc1cccc2cccc(-c3ccc4c(N5CCN(C(=O)/C(F)=C/c6nccs6)C[C@@H]5C)nc(OC[C@@]56CCCN5C[C@H](F)C6)nc4c3F)c12", "log10 of IC50": 2.58}
{"Compound Structure String": "C#Cc1c(F)ccc2cc(O)cc(-c3ccc4c(N5C[C@H]6CC[C@@H](C5)N6C(=O)/C(F)=C/c5nccs5)nc(OC[C@@H]5CCCN5C)nc4c3F)c12", "log10 of IC50": 2.60}
{"Compound Structure String": "C#Cc1cccc2cccc(-c3ccc4c(N5CCN(C(=O)/C(F)=C/c6ccccn6)C[C@@H]5C)nc(OC[C@@]56CCCN5C[C@H](F)C6)nc4c3F)c12", "log10 of IC50": 1.63}
{"Compound Structure String": "Cc1cc(N)nc(-c2c(Cl)cc3c(N4CC[C@@H]5CC[C@H](C4)N5C(=O)/C(F)=C/c4nccs4)nc(OC[C@@]45CCCN4C[C@H](F)C5)nc3c2F)c1C(F)(F)F", "log10 of IC50": 3.95}
{"Compound Structure String": "CN1CCC[C@H]1COc1nc(N2CCN(C(=O)/C(F)=C/c3ccccn3)[C@@H](CC#N)C2)c2ccc(-c3cccc4cccc(Cl)c34)c(F)c2n1", "log10 of IC50": 2.04}
{"Compound Structure String": "N#CC[C@H]1CN(c2nc(OC[C@@]34CCCN3C[C@H](F)C4)nc3c(F)c(-c4cccc5cccc(Cl)c45)ccc23)CCN1C(=O)/C(F)=C/c1ccccn1", "log10 of IC50": 1.66}
{"Compound Structure String": "CN1CCC[C@H]1COc1nc(N2CCN(C(=O)/C(F)=C/c3nccs3)CC2)c2ccc(-c3cc(O)cc4ccccc34)c(F)c2n1", "log10 of IC50": 2.26}
{"Compound Structure String": "CN1CCC[C@H]1COc1nc(N2CCN(C(=O)/C(F)=C/c3ncccn3)CC2)c2ccc(-c3cc(O)cc4ccccc34)c(F)c2n1", "log10 of IC50": 2.46}
{"Compound Structure String": "COc1ccc(Cl)cc1-c1ccc2c(N3CCN(C(=O)/C(F)=C/c4ncccn4)[C@@H](CC#N)C3)nc(OC[C@@H]3CCCN3C)nc2c1F", "log10 of IC50": 3.99}
{"Compound Structure String": "C#Cc1cccc2cccc(-c3ccc4c(N5CCN(C(=O)/C(F)=C/c6nccs6)[C@@H](CC#N)C5)nc(OC[C@@]56CCCN5C[C@H](F)C6)nc4c3F)c12", "log10 of IC50": 1.64}
{"Compound Structure String": "CN1CCC[C@H]1COc1nc(N2CCN(C(=O)/C(F)=C/c3ccccn3)CC2)c2ccc(-c3cc(O)cc4ccccc34)c(F)c2n1", "log10 of IC50": 2.54}

====

# Tested System: Recombinant GMPPNP-loaded KRAS G12C (KRAS-G12C(ON), active form) (Homo sapiens, UniProt P01116, G12C)
# Assay Explanation: KRAS G12C RAF Disruption Assay (HTRF)
# Assay type: biochemical
# Cond: GMPPNP-loaded KRAS G12C 5 nM, GST-RAF1 RBD 9 nM, values given in μM, read-out: KRASG12C RAF Disruption Assay (IC50)
Could you please mark Y for values of IC50 below 3 µM and N for values at or above it?

{"Compound": "Cc1cc(N)nc(-c2c(Cl)cc3c(N4CCN(C(=O)/C(F)=C/c5nccs5)[C@@H](CC(N)=O)C4)nc(OC[C@@H]4CCCN4C)nc3c2F)c1C(F)(F)F (atropisomer, axis not shown; (M))", "Assigned Category": "Y"}
{"Compound": "Cc1cc(N)nc(-c2c(Cl)cc3c(N4CC5CCC4CN5C(=O)/C(F)=C/c4ccccn4)nc(OC[C@@H]4CCCN4C)nc3c2F)c1C(F)(F)F (some centres unmarked)", "Assigned Category": "N"}
{"Compound": "Cc1cc(N)nc(-c2c(Cl)cc3c(N4C[C@]5(NC(=O)/C(F)=C/c6nccs6)CC[C@H]4C5)nc(OC[C@@H]4CCCN4C)nc3c2F)c1C(F)(F)F (atropisomer, axis not shown; (M))", "Assigned Category": "Y"}
{"Compound": "Cc1cc(N)nc(-c2c(Cl)cc3c(N4CC5CN(C(=O)/C(F)=C/c6nccs6)C5C4)nc(OC[C@]45CCCN4C[C@H](F)C5)nc3c2F)c1C(F)(F)F (single isomer, unassigned) [Example 15, Isomer 1]", "Assigned Category": "N"}
{"Compound": "Cc1cc(N)nc(-c2c(Cl)cc3c(N4CCC5C(CCN5C(=O)/C(F)=C/c5nccs5)C4)nc(OC[C@]45CCCN4C[C@H](F)C5)nc3c2F)c1C(F)(F)F (single isomer, unassigned) [Example 26, Isomer 2]", "Assigned Category": "N"}

====

# maps each entry to its IC50
# Tested System: Recombinant GMPPNP-loaded KRAS G12C (KRAS-G12C(ON), active form) (Homo sapiens, UniProt P01116, G12C)
# Assay Explanation: KRAS G12C RAF Disruption Assay (HTRF)
# Assay type: biochemical
# Cond: GMPPNP-loaded KRAS G12C 5 nM, GST-RAF1 RBD 9 nM, values in nM, read-out: KRASG12C RAF Disruption Assay (IC50)
# Protocol: This is a functional assay that measures activity of compounds against […]., the active form of KRAS G12C. Recombinant GMPPNP-loaded KRAS G12C (5 nM) was treated with compound at room temperature for 20 minutes in assay buffer (50 mM Tris pH 7.5, 100 mM NaCl, 1 mM MgCl2, 1 mM DTT, 100 μg/ml BSA). […] HTRF signal was measured (PerkinElmer Envision), the signal ratio (λem 520/λem 495) was calculated, and IC50 values were calculated from the dose-response curve.

{"Compound Structure String": "N#CC[C@H]1CN(c2nc(OC[C@@]34CCCN3C[C@H](F)C4)nc3c(F)c(-c4cccc5cccc(C#N)c45)ccc23)CCN1C(=O)/C(F)=C/c1ccccn1", "Unit Symbol": "nM", "IC50": 240}
{"Compound Structure String": "CN1CCC[C@H]1COc1nc(N2CCN(C(=O)/C(F)=C/c3ncccn3)[C@@H](CC#N)C2)c2ccc(-c3c(O)cccc3F)c(F)c2n1", "Unit Symbol": "nM", "IC50": 1000}
{"Compound Structure String": "Cc1ccc2[nH]ncc2c1-c1ccc2c(N3CCN(C(=O)/C(F)=C/c4cccnn4)[C@@H](CC#N)C3)nc(OC[C@@H]3CCCN3C)nc2c1F", "Unit Symbol": "nM", "IC50": 70}
{"Compound Structure String": "C#Cc1c(F)ccc2cc(O)cc(-c3ccc4c(N5C[C@H]6CC[C@@H](C5)N6C(=O)/C(F)=C/c5cccc(C)n5)nc(OC[C@@H]5CCCN5C)nc4c3F)c12", "Unit Symbol": "nM", "IC50": 290}
{"Compound Structure String": "N#CC[C@H]1CN(c2nc(OC[C@@]34CCCN3C[C@H](F)C4)nc3c(F)c(-c4cc(O)cc5ccccc45)ccc23)CCN1C(=O)/C(F)=C/c1ncccn1", "Unit Symbol": "nM", "IC50": 11}
